procedureSummary: chemical genetic growth profiling, strain panel (AID 1159580);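 note: tested at 20 µM; growth read once vehicle control cultures reached saturation at 30 °C; 1 = growth at the plate median or of vehicle wells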
conditionDescription: S. cerevisiae deletion strains, growth OD, locus YJL166W, strain qcr8, stronger effect = lower value
About 2,000 (36%) of roughly 5,500 compounds were called active. About 18% were inconclusive and are not listed. The list shows a part of the results.
measuredQuantity: normalized growth

# count of solved cases: 2
| compound | normalized growth |
| --- | --- |
| CCOc1ccc(NC(C)=O)cc1 | 1.02 (inactive) |
| CC(=O)OCC1=C(C(=O)O)N2C(=O)[C@@H](NC(=O)CCCC(N)C(=O)O)C2SC1 (stereo partly drawn) | 0.989 (inactive) |

Exercise: If you can, please state the reported normalized growth value of COc1cc2c(cc1OC)[C@@]13CCN4CC5=CCOC6CC(=O)N2C1[C@H]6[C@H]5C[C@H]43 (stereo partly drawn) .
Key: 0.996 (inactive)

----------
For each entry below, report its normalized growth value.
procedureSummary: chemical genetic growth profiling, strain panel (AID 1159580)
conditionDescription: S. cerevisiae deletion strains, growth OD, locus YNL298W, strain CLA4, stronger effect = lower value
Hit rate of the full screen: of about 5,500 compounds, about 2,000 (36%) were called active. Not shown: some 18% with an inconclusive outcome. The list shows a part of the results.
Give bare numbers.

| molecule | readoutNumber |
| --- | --- |
| CCCCc1nc(Cl)c(CO)n1Cc1ccc(-c2ccccc2-c2nn[nH]n2)cc1 | 0.989 |

Batch: normalized growth for all items listed.
1. O=C(OC[C@H]1O[C@H](OC(=O)c2cc(O)c(O)c(OC(=O)c3cc(O)c(O)c(O)c3)c2)[C@H](OC(=O)c2cc(O)c(O)c(OC(=O)c3cc(O)c(O)c(O)c3)c2)[C@@H](OC(=O)c2cc(O)c(O)c(OC(=O)c3cc(O)c(O)c(O)c3)c2)[C@@H]1OC(=O)c1cc(O)c(O)c(OC(=O)c2cc(O)c(O)c(O)c2)c1)c1cc(O)c(O)c(OC(=O)c2cc(O)c(O)c(O)c2)c1
2. COc1ccc(C(=O)O)c(O)c1OC
3. CCCc1nc2c(C)cc(-c3nc4ccccc4n3C)cc2n1Cc1ccc(-c2ccccc2C(=O)O)cc1
4. Cc1ccc(N(CC2=NCCN2)c2cccc(O)c2)cc1
5. CN1C(=O)CCS(=O)(=O)C1c1ccc(Cl)cc1 (stereo unspecified)
6. C1CCC(C(CC2CCCCN2)C2CCCCC2)CC1 (stereo unspecified)
7. O=C(CCBr)N1CCN(C(=O)CCBr)CC1

Key:
[0.0929, 1.01, 1.02, 0.899, 1.02, 1.01, 1.01]

----------
procedureSummary: chemical genetic growth profiling, strain panel (AID 1159580);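 note: tested at 20 µM; growth read once vehicle control cultures reached saturation at 30 °C; 1 = growth at the plate median or of vehicle wells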
conditionDescription: S. cerevisiae deletion strains, growth OD, locus YGR252W, strain gcn5
Out of some 5,500 compounds screened, about 2,000 (36%) were called active. Roughly 18% stayed inconclusive and do not appear here. Rule as the data show it: active = normalized growth mostly below about 0.91 (no sharp cut-off); inconclusive = no clear call, values can overlap the other calls; inactive = mostly above about 0.92. The list shows a part of the results.
A correct response names exactly one class from active, inactive

Examples with answers:
| molecule | label |
| --- | --- |
| O=C(O)c1cc([N+](=O)[O-])ccc1NCCCc1ccccc1 | inactive |
| CC(=O)Oc1cccc(C(=O)O)c1OC(C)=O | inactive |
| C1CCC(C(CC2CCCCN2)C2CCCCC2)CC1 (stereo not given) | active |

Exercise: Can you look up the reported call for COP(=O)(OC)OC(Br)C(Cl)(Cl)Br (stereo not given) for me?
Key: inactive

Exercise: Can you look up the reported call for `CCCCc1nc(Cl)c(CO)n1Cc1ccc(-c2ccccc2-c2nn[nH]n2)cc1` for me?
Key: inactive

Exercise: Can you look up the reported call for `CC(=O)N[C@@H](Cc1c[nH]c2ccccc12)C(=O)O` for me?
Key: inactive

Exercise: Can you look up the reported call for `CC(=O)NO` for me?
Key: inactive

Exercise: Can you look up the reported call for `Cc1onc(-c2c(Cl)cccc2Cl)c1C(=O)N[C@@H]1C(=O)N2[C@@H]1SC(C)(C)[C@@H]2C(=O)O` for me?
Key: inactive

Exercise: Can you look up the reported call for `CN1CCN(CC(=O)N2c3ccccc3C(=O)Nc3cccnc32)CC1` for me?
Key: inactive

Exercise: Can you look up the reported call for NC1CC1c1ccccc1 (stereo not given) for me?
Key: inactive

Exercise: Can you look up the reported call for CC(=O)O[C@H]1CC[C@]2(C)C3CC(=O)[C@]4(C)C(C(C)=O)=CCC4C3CC[C@H]2C1 (stereo not given in full) for me?
Key: inactive

----------
procedureSummary: chemical genetic growth profiling, strain panel (AID 1159580);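 note: tested at 20 µM; growth read once vehicle control cultures reached saturation at 30 °C; 1 = growth at the plate median or of vehicle wells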
conditionDescription: S. cerevisiae deletion strains, growth OD, locus YGL253W, strain hxk2
Out of some 5,500 compounds screened, about 2,000 (36%) were called active. Inconclusive results (about 18%) are left out. No stated cut-off is given here; in the data, active means normalized growth mostly below about 0.91 (no sharp cut-off); inconclusive means no clear call, values can overlap the other calls; inactive means mostly above about 0.92. The list shows a part of the results.
A correct response names exactly one class from active, inactive

| molecule | label |
| --- | --- |
| NC[C@H]1O[C@H](O[C@H]2C(O[C@@H]3O[C@H](CO)[C@@H](O)[C@H]3O)[C@@H](O)[C@H](N)C[C@@H]2N)[C@H](N)[C@@H](O)[C@@H]1O (some centres not stated) | inactive |
| CO[C@H]1C[C@H](O[C@H]2[C@H](C)[C@@H](OC3O[C@H](C)C[C@H](N(C)C)[C@H]3OC(C)=O)[C@@H](C)C[C@]3(CO3)C(=O)[C@H](C)[C@@H](OC(C)=O)[C@@H](C)[C@@H](C)OC(=O)[C@@H]2C)O[C@@H](C)[C@@H]1OC(C)=O (some centres not stated) | inactive |
| O=C(O)c1cc(=O)c2cccc(O)c2[nH]1 | inactive |
| CC(=O)OC1CCC2(C)C3CC(=O)C4(C)C(CC5OC6(CCC(C)CO6)[C@@H](C)C54)C3CC[C@H]2C1 (some centres not stated) | inactive |
| CC(=O)O[C@@H]1CC[C@]2(C)C3CC[C@]4(C)C(=O)CCC4C3CC[C@H]2C1 (some centres not stated) | inactive |

Exercise: Can you look up the reported call for `CN[C@@H]1[C@@H](O[C@H]2O[C@H](CO)[C@@H](N)[C@H](O)[C@H]2O)O[C@H]2C[C@@H](N)[C@H](O[C@H]3[C@H](O)[C@@H](O)[C@H](N)C[C@@H]3N)O[C@@H]2[C@@H]1O` for me?
Key: inactive

Exercise: Can you look up the reported call for `CC1=C(O)C(=O)C=C2C1=CC=C1[C@@]2(C)CC[C@@]2(C)[C@@H]3C[C@](C)(C(=O)O)CC[C@]3(C)CC[C@]12C` for me?
Key: active

----------
procedureSummary: chemical genetic growth profiling, strain panel (AID 1159580);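 note: tested at 20 µM; growth read once vehicle control cultures reached saturation at 30 °C; 1 = growth at the plate median or of vehicle wells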
conditionDescription: S. cerevisiae deletion strains, growth OD, locus YPL078C, strain atp4, stronger effect = lower value
The whole screen tested about 5,500 compounds, of which about 2,000 (36%) were called active. Not shown: some 18% with an inconclusive outcome. The list shows a part of the results.
For each entry below, report its normalized growth value.
Numbers only.

| compound | normalized growth |
| --- | --- |
| COc1ccc(C2C(=O)c3ccccc3C2=O)cc1 | 1 |
| CCCCc1nc(Cl)c(CO)n1Cc1ccc(-c2ccccc2-c2nn[nH]n2)cc1 | 0.985 |
| CC[C@H]1OC(=O)[C@H](C)[C@@H](O[C@H]2C[C@@](C)(OC)[C@@H](O)[C@H](C)O2)[C@H](C)[C@@H](O[C@@H]2O[C@H](C)C[C@H](N(C)C)[C@H]2O)[C@](C)(O)C[C@@H](C)[C@@H]2N[C@@H](COCCOC)O[C@H]([C@H]2C)[C@]1(C)O | 0.995 |
| CCCc1nc2c(C)cc(-c3nc4ccccc4n3C)cc2n1Cc1ccc(-c2ccccc2C(=O)O)cc1 | 1.01 |
| COc1ccc(C(=O)c2ccccc2)c(O)c1O | 0.975 |
| CN(C)CCc1c[nH]c2ccc(C[C@H]3COC(=O)N3)cc12 | 1 |

Batch: normalized growth for all items listed.
1. CNS(=O)(=O)Cc1ccc2[nH]cc(CCN(C)C)c2c1
2. OC(c1cc(C(F)(F)F)nc2c(C(F)(F)F)cccc12)C1CCCCN1 (stereo not given)
3. COc1cc2c(cc1OC)[C@@]13CCN4CC5=CCOC6CC(=O)N2C1[C@H]6[C@H]5C[C@H]43 (stereo not given in full)
4. Cc1cc(C(C)(C)C)c(O)c(C)c1CC1=NCCN1
5. COc1ccc(C(=O)c2ccc(O)cc2)c(O)c1O

Key:
1: 1.02; 2: 1; 3: 0.988; 4: 1.01; 5: 0.986

Batch: normalized growth for all items listed.
1. CN(C)CCc1c[nH]c2ccc(CS(=O)(=O)N3CCCC3)cc12
2. CCOc1ccc(NC(C)=O)cc1
3. CCOc1ccc(C(=O)c2cc(O)c(OC)c(OC)c2O)cc1
4. Cc1onc(-c2ccccc2)c1C(=O)NC1C(=O)N2[C@@H]1SC(C)(C)[C@@H]2C(=O)O (stereo not given in full)

Key:
1. 1.02
2. 1.01
3. 0.994
4. 1.01
